- TARGET_UNDER_TEST: T1, MPP6, Q9NZW5
- T1 sequence (Q9NZW5 125-219, limits assumed, looked up): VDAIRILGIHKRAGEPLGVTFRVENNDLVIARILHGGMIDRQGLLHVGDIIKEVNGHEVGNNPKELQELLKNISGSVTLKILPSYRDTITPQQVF
- EXPERIMENT_DESCRIPTION: holdup assay
- Set-up: key: below the threshold = too weak to quantify, mostly under pKd 3.1 to 4
- TEST_PARAMETERS: plain residues with an end cap or a label only (N-terminal biotin on a linker: ado-ado)
RECORDED_ENDPOINT: pKd

>>> endpoint_result("DTTVPESEDL [MYOZ2, Q9NPC6]")
"below the threshold"
>>> endpoint_result("LPHPHSTTRV [NLGN2, Q8NFZ4]")
"below the threshold"
>>> endpoint_result("IKAIVDLTGL [TRAF2, Q12933]")
3.49
>>> endpoint_result("QMNQTLPVQV [EPHB3, P54753]")
"below the threshold"

Hey, just so you know, these numbers are from paper PMC9482650.
